- target_entity: T1, human insulin receptor (HIR) (human, UniProt P06213 28-1382, limits assumed)
- T1 construct: solubilised receptor
- protocol_notes: 125I-insulin displacement, purified HIR
quantity_measured: Kd (nM)

- S300 (C-terminal Lig′ joined to linker 14, dimer, C-C) peptide 1: DWLQRNANFYDWFVAELX peptide 2: DWLQRNANFYDWFVAELX: 50
- TFYSCLASLLTGTPQPNRGPWERCRKK [S327]: 2700
- S229 (C-terminal Lig joined to linker 12, heterodimer F2-F4, C-C) peptide 1: SDGFYNAIELLSX peptide 2: KHLCVLEELFWGASLFGYCSGKKX: 4.4
